Target: T1, 4H342-bH
T1 chain: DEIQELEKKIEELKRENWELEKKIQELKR
Assay: two-hybrid library CCNG1;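 further: natural log of median RNA to DNA barcode read ratio; higher means stronger binding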
OBSERVED_PROPERTY: interaction score

DEIQELEKENEELERENWELEKEIQELER [4H145-bH] ... -0.409
DKIQELKKENEELEREIWELEKENQELER [4H2691-bH] ... -1.06
DENQELEKKIEELKREIWELEKENQELER [4H1347-bH] ... -0.391
DKIQELKKKIEELKREIWELEKENQELER [4H2883-bH] ... -0.175
DEIQELEKKIEELKRENWELEKKIQELKR [4H342-bH] ... 1.38

1: DKIQELKKKIEELKRKNWELKKEIQELER [4H2937-bH]
2: DKIQELKKKIEELKRKNWELKKKNQELKR [4H2944-bH]
Ask: Please let me know which one, 1 or 2 , has a lower measured interaction score value. # reply format: chosen label
Reply: 2

All values here come from paper PMC10397247.
